test system: parasites (ring stage, in human red blood cell culture); assay: Parasite LDH growth assay (antiparasite potency, Parasite Assay); assay type: cell-based, Plasmodium falciparum; settings: Plasmodium falciparum, Erythrocyte, 72 h, 0.7% rings, 2% haematocrit, 72 hours at 37° C., LDH readout of parasite growth
measuredParameter: pEC50
Units for pEC50: none; it is -log10 of a concentration expressed in mol/L.

The compound CC1(C)CC(=O)N([C@@H]2CCOc3ccc(C(=O)N[C@@H]4c5cc(Cl)cc(Cl)c5OC[C@@]4(C)O)cc32)C(=N)N1 showed pEC50 equal to 8.11

The compound CCC1(CC)CC(=O)N([C@@H]2CCOc3ccc(C(=O)N[C@H]4CC(C)(C)Oc5ccccc54)nc32)C(=N)N1 [Example 31B] showed pEC50 equal to 9.00

The compound CCC1(CC)CC(=O)N([C@@H]2CCOc3ccc(C(=O)NC(c4ccccc4)c4ccccc4)cc32)C(=N)N1 showed pEC50 equal to 9.05

The compound CC[C@]1(C)CC(=O)N([C@@H]2C[C@@H](COC(F)F)Oc3ccc(C(=O)N[C@@H]4c5ccccc5OC[C@@]4(C)O)cc32)C(=N)N1 showed pEC50 equal to 8.42

The compound CCC1(CC)CC(=O)N([C@@H]2C[C@@H](CCCCCCNC(C)=O)Oc3ccc(C(=O)N[C@H]4CC(C)(C)Oc5ccccc54)cc32)C(=N)N1 showed pEC50 equal to 8.49

The compound CCC1(CC)CC(=O)N([C@H]2c3cc(C(=O)N[C@@H]4c5ccccc5C(F)(F)[C@H]4O)ccc3O[C@@]2(C)COC)C(=N)N1 showed pEC50 equal to 9.52

The compound CCC1(CC)CC(=O)N([C@@H]2CCc3ccc(C(=O)N[C@@H]4c5ccccc5OC[C@]4(C)O)cc32)C(=N)N1 showed pEC50 equal to 8.41

The compound CCC1(CC)CC(=O)N([C@@H]2CCS(=O)(=O)c3ccc(C(=O)N[C@@H]4c5ccccc5C[C@H]4O)cc32)C(=N)N1 showed pEC50 equal to 7.81

The compound C[C@H]1Cc2ccc(C(=O)N[C@@H]3c4ccccc4OC(C)(C)[C@H]3O)cc2[C@@H]1N1C(=N)NC(C)(C)CC1=O showed pEC50 equal to 8.89

The compound CCC1(CC)CC(=O)N([C@@H]2CCOc3ccc(C(=O)N[C@H]4CCOc5ccccc54)cc32)C(=N)N1 showed pEC50 equal to 8.66
